- Tested on: AR transcriptional activity (PSA promoter activity)
- test: PSA luciferase assay in C4-2-PSA-rl cells (Dual-Glo luciferase system)
- condition-label: C4-2-PSA-rl cells, 24 h treatment, 1 nM R1881; mean and SD of 2-6 independent experiments
For each entry below, report its IC50 value.
Numbers only, in µM.

Would you mind giving IC50 for every molecule in the list below?
1. Cc1noc(C)c1CSCC(=O)N1CCN(c2ccccc2F)CC1
2. Cc1ccccc1N1CCN(C(=O)CSCc2ccccc2)CC1
3. Cc1ccccc1N1CCN(C(=O)CCCc2ccccc2)CC1
4. Cc1noc(C)c1CSCC(=O)N1CCN(c2ccccc2C#N)CC1

Result:
1. 12.6
2. 13.7
3. 14.4
4. 12

Would you mind giving IC50 for every molecule in the list below?
1. Cc1noc(C)c1CSCC(=O)N1C[C@@H](C)N(c2ccccc2)[C@@H](C)C1
2. Cc1cccc(N2[C@H](C)CN(C(=O)CSCc3c(C)noc3C)C[C@@H]2C)c1

Result:
1. 14.7
2. 16.6
